Target: huNav1.7α + β1 (human)
Assay: cell-based or functional assay
outcome-measure: Qpatch IC50 (nM)
Value expressed in nM; do not type the unit.

Which Qpatch IC50 value belongs to F010301566 (VHH) VHH: EVQLVESGGGLVQAGGSLRLSCDASGRILRIGYMRWHRQGAGKQREFVARITDGSATGYADSVKGRFTISRDNAKNTVYLQMNNLNPEDTAVYYCEALVTASVRGGSIHSGTYWGRGTLVTVSS ?
18

Others:
I am curious: what Qpatch IC50 value has been reported for F010302391 (VHH) VHH: EVQLVESGGGVVQPGGSLRLSCAASGRILRIGYMRWYRQAPGKQREFVARITGGSATGYADSVKGRFTISRDNAKNTVYLQMNSLRPEDTALYYCEALVTASVRGGSIHSGTYWGQGTLVTVSS ?
32

Try this binder too: F010301559 (VHH) VHH: EVQLVESGGGLVQAGGSLRLSCAASGRILRIGYMRWHRQGAGKQREFVARITDGSATGYADSVKGRFTISRDNAKNTVYLQMNNLNPEDTAVYYCEALVTASVRGGSIHSGTYWGRGTLVTVSS
12
